Target: UniProt:P29476
Assay: biochemical
Conditions: recombinant isozyme
Endpoint name: Ki (µM)
Unit µM implied. Number only.

Some molecules with recorded Ki:
Cc1cc(N)nc(C[C@H]2CNC[C@H]2NCCN)c1 [Compound 5] | 0.098
Nc1cccc(C[C@H]2CN(Cc3ccccc3)C[C@H]2NCCCc2ccccc2)n1 [Compound 2] | 48

// switching to the query molecule
Data request: Output Ki of Cc1cc(N)nc(C[C@H]2CNC[C@H]2NCCNCc2cccc(C(F)(F)F)c2)c1 [Compound 3]
Data returned: 0.21
